Target: DYRK1A (Homo sapiens, UniProt Q13627)
Assay: biochemical
Assay type: binding
Details: read-out: DYRK1A IC50, TR-FRET; 10-point 2-fold dose response; listed as tetrahydroharmine
EXPERIMENTAL READOUT: IC50 (µM)
Numeric only. Scale: µM

Can you share its IC50? I mean this compound: COc1ccc2c3c([nH]c2c1)[C@@H](C)NCC3 [Tetrahydroharmine, tetrahydroharmine]
9.4
